A collection of compounds and their measured GI50
# System: NCI-H23 lung
# protocol.notes: NCI tumour cell line growth inhibition, 48 h

| compound | test.value |
| --- | --- |
| C[C@]12CCc3nc(Nc4ccccc4)sc3C1=CC[C@@H]1[C@@H]2CC[C@]2(C)/C(=N/NC(N)=S)CC[C@@H]12 | 6.15 µM |
| Cc1ccc(S(=O)(=O)NCCNc2nccc(-c3c(-c4ccc(F)cc4)nc4sccn34)n2)cc1 | 7.14 µM |
| O=C(/C=C/c1cc(CN2CCOCC2)c(O)c2ncccc12)c1cc(CN2CCOCC2)c(O)c2ncccc12 | 0.0586 µM |
| C1C[OH+]CCNCC[OH+]CC[OH+]CCN1.[Cl-].[Pt+4] | > 100 µM |
| Cc1cc(I)cc(CN(C)CCCN2CCOCC2)c1O | 72.3 µM |

// GI50 lookup, compound = COc1ccc(-c2oc3cc(O)c(OC)c(O)c3c(=O)c2OC)cc1O , result: 0.443 µM

// GI50 lookup, compound = CCC(C)(C)c1ccc(OCCCCCCN2CCNCC2)cc1 , result: 2.85 µM

// GI50 lookup, compound = [Au+].[Au+].[Au+].[c-]1nccn1Cc1ccccc1.[c-]1nccn1Cc1ccccc1.[c-]1nccn1Cc1ccccc1 , result: 4.97 µM

// GI50 lookup, compound = COc1ccc(C(=O)COc2cccc(/C=C3\Oc4ccc5ccccc5c4C3=O)c2)cc1 , result: 3.38 µM

// GI50 lookup, compound = NC(N)=NCCCCCNc1noc(Cc2c[nH]c3cc(Br)ccc23)n1 , result: 8.2 µM

// GI50 lookup, compound = CCc1ccccc1NC(=O)c1sc2nc3c(cc2c1N)C(=O)CCC3 , result: 0.711 µM
